System: PSMA+ PC-3 PiP and PSMA− PC-3 flu tumors
Conditions: 1 h; co-injection 0.5 nmole YC-I-27
experimental.endpoint: Biodistribution: Salivary gland (% injected dose/gram)

>  <compound>
O=C(O)CC[C@H](NC(=O)N[C@@H](CCCCN(Cc1ccc([125I])cc1)C(=O)CCCCNC(=O)CN1CCN(CC(=O)O)CCN(CC(=O)O)CCN(CC(=O)O)CC1)C(=O)O)C(=O)O [[^125I]VK-02-90]

>  <recorded.measurement>
0.46

$$$$
>  <compound>
O=C([O-])CN1CCN(CC(=O)[O-])CCN(CC(=O)NCCCCC(=O)N(CCCC[C@H](NC(=O)N[C@@H](CCC(=O)O)C(=O)O)C(=O)O)Cc2ccc([211At])cc2)CCN(CC(=O)[O-])CC1.[Lu+3] [[^211At]VK-02-90-Lu]

>  <recorded.measurement>
0.4

$$$$
>  <compound>
O=C(O)CC[C@H](NC(=O)N[C@@H](CCC(=O)NCCc1ccc([125I])cc1)C(=O)O)C(=O)O [[^125I]HS-549]

>  <recorded.measurement>
1.0

$$$$
>  <compound>
O=C([O-])CN1CCN(CC(=O)[O-])CCN(CC(=O)NCCCCC(=O)N(CCCC[C@H](NC(=O)N[C@@H](CCC(=O)O)C(=O)O)C(=O)O)Cc2ccc([125I])cc2)CCN(CC(=O)[O-])CC1.[Lu+3] [[^125I]VK-02-90-Lu]

>  <recorded.measurement>
3.2

$$$$
